tested on: primary AML patient cells (S071); experiment: viability relative to DMSO control (fraction); higher = less drug effect (more viable cells); conditions: 15 µM; 48 h
viability overview
observed property: viability

smiles entry: Nc1nc(Cl)nc2c1ncn2[C@@H]1O[C@H](CO)[C@@H](O)[C@@H]1F
experimental system: primary AML patient cells (S071)
observed property: viability
observed value: 0.211
//
smiles entry: CCN1CCN(Cc2ccc(Nc3ncc(F)c(-c4cc(F)c5nc(C)n(C(C)C)c5c4)n3)nc2)CC1
experimental system: primary AML patient cells (S071)
observed property: viability
observed value: 0.0535
//
smiles entry: CS(=O)(=O)c1ccc(C(=O)Nc2ccc(Cl)c(-c3ccccn3)c2)c(Cl)c1
experimental system: primary AML patient cells (S071)
observed property: viability
observed value: 0.891
//
smiles entry: Nc1nc(=S)c2[nH]cnc2[nH]1
experimental system: primary AML patient cells (S071)
observed property: viability
observed value: 0.228
//
smiles entry: CCc1nc(C(N)=O)c(Nc2ccc(N3CCC(N4CCN(C)CC4)CC3)c(OC)c2)nc1NC1CCOCC1
experimental system: primary AML patient cells (S071)
observed property: viability
observed value: 0.878
//
smiles entry: O=C(Nc1cccc(C(F)(F)F)c1)Nc1cc(S(=O)(=O)NC2CC2)ccc1-c1ccsc1
experimental system: primary AML patient cells (S071)
observed property: viability
observed value: 0.607

----------
tested on: primary FL patient cells (S022); assay: viability relative to DMSO control (fraction); higher = less drug effect (more viable cells); conditions: 0.12 µM; 48 h
observed property: viability

molecule: CNC(=O)c1cc(Oc2ccc(NC(=O)Nc3ccc(Cl)c(C(F)(F)F)c3)cc2)ccn1 [Sorafenib]
observed property: viability
observed value: 1.01
//
molecule: Nc1nc(=S)c2[nH]cnc2[nH]1 [Thioguanin]
observed property: viability
observed value: 0.955
//
molecule: N#Cc1ccnc(N2C(=O)CC[C@H]2C(=O)N(c2cncc(F)c2)[C@H](C(=O)NC2CC(F)(F)C2)c2ccccc2Cl)c1 [AG-120]
observed property: viability
observed value: 0.833
//
molecule: O=C(c1cc(Cc2n[nH]c(=O)c3ccccc23)ccc1F)N1CCN(C(=O)C2CC2)CC1 [Olaparib]
observed property: viability
observed value: 1.07
//
molecule: CCN1CCN(Cc2ccc(Nc3ncc(F)c(-c4cc(F)c5nc(C)n(C(C)C)c5c4)n3)nc2)CC1
observed property: viability
observed value: 1.01

----------
system: primary AML patient cells (S021); assay: viability relative to DMSO control (fraction); higher = less drug effect (more viable cells); conditions: 0.4 µM; 48 h
viability overview
observed property: viability

smiles entry: CC1(COc2ccc3c(c2)ncn3-c2ccc3cccc(N4CCC(N)CC4)c3n2)COC1
experimental system: primary AML patient cells (S021)
observed value: 1.17
//
smiles entry: O=C(Nc1nc2ccccc2n1CCN1CCOCC1)c1cccc([N+](=O)[O-])c1
experimental system: primary AML patient cells (S021)
observed value: 0.907
//
smiles entry: Nc1nc(F)nc2c1ncn2[C@@H]1O[C@H](CO)[C@@H](O)[C@@H]1O
experimental system: primary AML patient cells (S021)
observed value: 0.579
//
smiles entry: CC(C)c1cc(C(=O)N2Cc3ccc(CN4CCN(C)CC4)cc3C2)c(O)cc1O
experimental system: primary AML patient cells (S021)
observed value: 0.523

----------
tested on: primary MCL patient cells (S053); test: viability relative to DMSO control (fraction); higher = less drug effect (more viable cells); conditions: 0.2 µM; 48 h
observed property: viability

compound: CCc1cnn2c(NCc3ccc[n+]([O-])c3)cc(N3CCCC[C@H]3CCO)nc12
experimental system: primary MCL patient cells (S053)
observed value: 0.9

compound: COc1cccc2c1C(=O)c1c(O)c3c(c(O)c1C2=O)C[C@@](O)(C(C)=O)C[C@@H]3O[C@H]1C[C@H](N)[C@H](O)[C@H](C)O1
experimental system: primary MCL patient cells (S053)
observed value: 0.307

compound: COc1cccc2c1C(=O)c1c(O)c3c(c(O)c1C2=O)C[C@@](O)(C(=O)CO)C[C@@H]3O[C@H]1C[C@H](N)[C@H](O)[C@H](C)O1
experimental system: primary MCL patient cells (S053)
observed value: 0.216

compound: Nc1cccc2c1CN(C1CCC(=O)NC1=O)C2=O (centres undefined) [Lenalidomide]
experimental system: primary MCL patient cells (S053)
observed value: 0.862

----------
tested on: primary B-PLL patient cells (S016); assay: viability relative to DMSO control (fraction); higher = less drug effect (more viable cells); conditions: 0.6 µM; 48 h
Threshold check on viability: strictly below 0.9 is Condition met; on or above 0.9 is Condition not met.

compound: Cc1cc(Nc2ncc(Cl)c(Nc3ccccc3S(=O)(=O)C(C)C)n2)c(OC(C)C)cc1C1CCNCC1 [Ceritinib]
group label: Condition met
//
compound: Nc1nc(Cl)nc2c1ncn2[C@@H]1O[C@H](CO)[C@@H](O)[C@@H]1F [Clofarabine]
group label: Condition met
//
compound: Oc1ccc(/C=C/c2cc(O)cc(O)c2)cc1 [Resveratrol]
group label: Condition met
//
compound: CNC(=O)c1cc(Oc2ccc(NC(=O)Nc3ccc(Cl)c(C(F)(F)F)c3)cc2)ccn1 [Sorafenib]
group label: Condition not met

----------
tested on: primary AML patient cells (S012); assay: viability relative to DMSO control (fraction); higher = less drug effect (more viable cells); settings: 0.2 µM; 48 h
viability overview
observed property: viability

smiles entry: O=C1c2c(O)ccc(O)c2C(=O)c2c(NCCNCCO)ccc(NCCNCCO)c21
observed value: 0.978

smiles entry: Cc1nc(Nc2ncc(C(=O)Nc3c(C)cccc3Cl)s2)cc(N2CCN(CCO)CC2)n1
observed value: 1

smiles entry: C/C=C1\NC(=O)[C@H]2CSSCC/C=C/[C@H](CC(=O)N[C@H](C(C)C)C(=O)N2)OC(=O)[C@H](C(C)C)NC1=O
observed value: 0.0665

smiles entry: CCc1cnn2c(NCc3ccc[n+]([O-])c3)cc(N3CCCC[C@H]3CCO)nc12
observed value: 0.0607

smiles entry: CC#CC(=O)N1CCC[C@H]1c1nc(-c2ccc(C(=O)Nc3ccccn3)cc2)c2c(N)nccn12
observed value: 1.14

----------
system: primary CLL patient cells (S031); assay: viability relative to DMSO control (fraction); higher = less drug effect (more viable cells); conditions: 0.12 µM; 48 h

smiles entry: O=C(Nc1cccc(C(F)(F)F)c1)Nc1cc(S(=O)(=O)NC2CC2)ccc1-c1ccsc1
viability: 0.703

smiles entry: CCN1CCN(Cc2ccc(Nc3ncc(F)c(-c4cc(F)c5nc(C)n(C(C)C)c5c4)n3)nc2)CC1
viability: 0.752

smiles entry: Nc1nc(=S)c2[nH]cnc2[nH]1
viability: 0.972

smiles entry: CCc1nc(C(N)=O)c(Nc2ccc(N3CCC(N4CCN(C)CC4)CC3)c(OC)c2)nc1NC1CCOCC1
viability: 1

smiles entry: N#Cc1ccnc(N2C(=O)CC[C@H]2C(=O)N(c2cncc(F)c2)[C@H](C(=O)NC2CC(F)(F)C2)c2ccccc2Cl)c1
viability: 0.912

smiles entry: CNC(=O)c1cc(Oc2ccc(NC(=O)Nc3ccc(Cl)c(C(F)(F)F)c3)cc2)ccn1
viability: 1.02

smiles entry: N#CC[C@H](C1CCCC1)n1cc(-c2ncnc3[nH]ccc23)cn1
viability: 1

----------
viability overview
test system: primary AML patient cells (S017); experiment: viability relative to DMSO control (fraction); higher = less drug effect (more viable cells); details: 15 µM; 48 h
observed property: viability

compound: C[C@@H](Oc1cc(-c2cnn(C3CCNCC3)c2)cnc1N)c1c(Cl)ccc(F)c1Cl [Crizotinib]
observed value: 0.299
--
compound: N#CC[C@H](C1CCCC1)n1cc(-c2ncnc3[nH]ccc23)cn1 [Ruxolitinib]
observed value: 0.907
--
compound: Nc1ncn([C@H]2C[C@H](O)[C@@H](CO)O2)c(=O)n1 [Decitabine (Dacogen)]
observed value: 1.08
--
compound: CS(=O)(=O)c1ccc(C(=O)Nc2ccc(Cl)c(-c3ccccn3)c2)c(Cl)c1 [Vismodegib]
observed value: 0.955
--
compound: CCc1nc(C(N)=O)c(Nc2ccc(N3CCC(N4CCN(C)CC4)CC3)c(OC)c2)nc1NC1CCOCC1 [Gilteritinib]
observed value: 0.47
--
compound: O=C(Nc1cccc(C(F)(F)F)c1)Nc1cc(S(=O)(=O)NC2CC2)ccc1-c1ccsc1 [AGI-6780]
observed value: 0.982

----------
tested on: primary AML patient cells (S007); experiment: viability relative to DMSO control (fraction); higher = less drug effect (more viable cells); details: 1 µM; 48 h

molecule: Nc1cccc2c1CN(C1CCC(=O)NC1=O)C2=O (centres undefined) [Lenalidomide]
viability: 0.188
//
molecule: Nc1ccc2ncnc(NCCc3ccc(Oc4ccccc4)cc3)c2c1 [EVP4593]
viability: 0.257
//
molecule: Cc1nc(Nc2ncc(C(=O)Nc3c(C)cccc3Cl)s2)cc(N2CCN(CCO)CC2)n1 [Dasatinib]
viability: 0.755
//
molecule: CCc1cnn2c(NCc3ccc[n+]([O-])c3)cc(N3CCCC[C@H]3CCO)nc12 [Dinaciclib]
viability: 0.141
